Ref: ChEMBL document CHEMBL1201862

Tested on: OVCAR-8
Assay: NCI tumour cell line growth inhibition, 48 h
Activity calls are given as the source filed them. Cut-off read from the data, not from the text of the source: active = GI50 up to about 1.1 µM and inactive = higher.
API: response.call in True for active, False for inactive

Exercise: Which outcome did this test record for the molecule `S=c1[nH]c(Cl)cc2nc(Cl)cn12` ?
Key: False

Exercise: Consider next the molecule `CN(Cc1cc(C(C)(C)C)cc(Br)c1O)Cc1cc(C(C)(C)C)cc(Br)c1O` in the same way.
Key: False

Exercise: What do we get for CCOP(=O)(OCC)C1CC(C)OC1=O (configuration not stated) ?
Key: False

Exercise: Also need COC(=O)C1CC2c3c(c4ccccc4n3C)CC(C1=O)N2C (configuration not stated) , thanks.
Key: False

Exercise: Then this molecule: CCOP(=O)(O)C(Nc1ccc(/N=N/c2ccccc2)cc1)c1cccc(C(Nc2ccc(/N=N/c3ccccc3)cc2)P(=O)(O)OCC)c1 (configuration not stated)
Key: False

Exercise: Moving on to COc1ccc2nc3n(c2c1)C(c1c(F)cccc1Cl)SC3 (configuration not stated)
Key: False

Exercise: Okay, and CC(C)OCC(O)COc1cc(=O)oc2ccccc12 (configuration not stated) ?
Key: False

Exercise: Similarly, `C#Cc1c(C)c(/C=C/C(C)=C/C(=O)OC)n(C)c1C` ?
Key: False

Exercise: One more molecule: `CN(/N=C(\C(=O)O)c1ccccc1)C1=NCCCN1`
Key: False

Exercise: Proceed to `CCOC(=O)c1cc(=O)c2cccc3c2n1CCS3`
Key: False

Exercise: Same lookup for `Clc1cc(OCc2nn3c(Cc4ccccc4)nnc3s2)ccc1OCc1nn2c(Cc3ccccc3)nnc2s1` , please.
Key: False

Exercise: // same read-out, input: `CCCCCCCCCCCCN(O)C(=O)c1ccccc1`
Key: False

Exercise: Queued: `COc1cccc2c(=O)oc(-c3ccccc3C)nc12`
Key: False

Exercise: C=C1CC(C)(COc2cc(=O)oc3ccccc23)OC1=O (configuration not stated) , same question.
Key: False

Exercise: What do you get for Nc1nc2c(nnn2C2C=C(CO)C(O)C2O)c(=O)[nH]1 (configuration not stated) ?
Key: False

Exercise: Same read-out for `CN(CCNC(=O)c1n[nH]c2c1ccc1ccccc12)CCNC(=O)c1n[nH]c2c1ccc1ccccc12` ?
Key: False

Exercise: Request: CCC12CCCC(=O)N1C(CO)C(c1ccccc1)O2 (configuration not stated)
Key: False

Exercise: Next up: C=C1C(=O)OC2C1CC[C@H](C)C13OC(=O)CC1[C@@]23C (some centres not stated)
Key: False

Exercise: Now give it for CC(C)N1CN(C(C(=O)N[C@@H]2C(=O)N3C2SC(C)(C)C3C(=O)O)c2ccc(O)cc2)CSC1=S (some centres not stated) too.
Key: False

Exercise: Another: `O=C1c2cccnc2-c2nccc3c2c1nc1ccc(Br)cc13`
Key: True

Exercise: Same question for `COC(=O)c1ccc(Cc2ccc(C(=O)OC)o2)o1` please.
Key: False

Exercise: How about this molecule: `O=C(O)CN1CCN2CCCCCCCCN(CC1)CCN(CC(=O)O)CC2`
Key: False

Exercise: One more molecule: `N=C(N)c1csc([C@@H]2O[C@H](CO)[C@@H](O)[C@H]2O)n1`
Key: False

Exercise: Do the same for `Clc1ccc(COc2ccccc2/C=N/c2c(-c3ccco3)nc3ccccn23)c(Cl)c1` please
Key: False

Exercise: And then OCC1OC(n2cnc3c(Cl)nc(Nc4ccc(Cl)c(Cl)c4)nc32)CC1O (configuration not stated) , what is it?
Key: False

Exercise: Repeat for the following molecule: `CCCn1c(=O)c2nn3c(=O)n(CCC)c(=O)c3nn2c1=O`
Key: False

Exercise: And then `Cc1nnc2n1-c1ccccc1N(Cc1ccccc1)CC2` , what is it?
Key: False
